Data origin, for the record: patent US20130142879A1

experiment: Solubility of drugs within HFA 227 with ethanol addition; conditions: EtOH addition 0 % w/w
assay metric: Solubility within HFA 227 (μg per 50 μl)

Below: 2 compounds and their reported Solubility within HFA 227.
[[record]]
compound = "CCC(=O)O[C@]1(C(=O)SCF)[C@H](C)C[C@H]2[C@@H]3C[C@H](F)C4=CC(=O)C=C[C@]4(C)[C@@]3(F)[C@@H](O)C[C@@]21C [Fluticasone Propionate]"
quantitative_readout = 0.22

[[record]]
compound = "COc1ccc(CC(C)NCC(O)c2ccc(O)c(NC=O)c2)cc1 (stereo not shown)"
quantitative_readout = 0.00


[a] CCCC1O[C@@H]2C[C@H]3[C@@H]4CCC5=CC(=O)C=C[C@]5(C)[C@H]4[C@@H](O)C[C@]3(C)[C@]2(C(=O)CO)O1 (stereo partly shown) [Budesonide]
[b] C[N+]1(C)[C@@H]2C[C@@H](OC(=O)C(O)(c3cccs3)c3cccs3)C[C@H]1[C@@H]1O[C@@H]12 [Tiotropium Bromide]
[in] Endpoint returns whichever of a and b has the numerically higher Solubility within HFA 227. To answer, give the label that identifies your chosen option.
[out] a

====

test: Solubility of drugs within HFA 227 with ethanol addition; conditions: EtOH addition 5 % w/w
assay metric: Solubility within HFA 227 (μg per 50 μl)

Below: 2 molecules and their reported Solubility within HFA 227.
[[record]]
molecule = "C[N+]1(C)[C@@H]2C[C@@H](OC(=O)C(O)(c3cccs3)c3cccs3)C[C@H]1[C@@H]1O[C@@H]12 [Tiotropium Bromide]"
assay_metric = "Solubility within HFA 227"
quantitative_readout = 0.07

[[record]]
molecule = "COc1ccc(CC(C)NCC(O)c2ccc(O)c(NC=O)c2)cc1 (stereo not shown)"
assay_metric = "Solubility within HFA 227"
quantitative_readout = 0.23


[I] CCC(=O)O[C@]1(C(=O)SCF)[C@H](C)C[C@H]2[C@@H]3C[C@H](F)C4=CC(=O)C=C[C@]4(C)[C@@]3(F)[C@@H](O)C[C@@]21C [Fluticasone Propionate]
[II] CCCC1O[C@@H]2C[C@H]3[C@@H]4CCC5=CC(=O)C=C[C@]5(C)[C@H]4[C@@H](O)C[C@]3(C)[C@]2(C(=O)CO)O1 (stereo partly shown) [Budesonide]
[in] Endpoint returns whichever of I and II has the numerically higher Solubility within HFA 227. To answer, give the label that identifies your chosen option.
[out] II

====

test: Solubility of drugs within HFA 227 with ethanol addition; conditions: EtOH addition 1 % w/w
assay metric: Solubility within HFA 227 (μg per 50 μl)

[[record]]
compound = "COc1ccc(CC(C)NCC(O)c2ccc(O)c(NC=O)c2)cc1 (stereo not shown)"
unit_annotation = "μg per 50 μl"
quantitative_readout = 0.02


[P] CCCC1O[C@@H]2C[C@H]3[C@@H]4CCC5=CC(=O)C=C[C@]5(C)[C@H]4[C@@H](O)C[C@]3(C)[C@]2(C(=O)CO)O1 (stereo partly shown) [Budesonide]
[Q] CCC(=O)O[C@]1(C(=O)SCF)[C@H](C)C[C@H]2[C@@H]3C[C@H](F)C4=CC(=O)C=C[C@]4(C)[C@@]3(F)[C@@H](O)C[C@@]21C [Fluticasone Propionate]
[R] C[N+]1(C)[C@@H]2C[C@@H](OC(=O)C(O)(c3cccs3)c3cccs3)C[C@H]1[C@@H]1O[C@@H]12 [Tiotropium Bromide]
[in] Reorder: Solubility within HFA 227, max to min. Enter labels, ranked according to the request.
[out] P, Q, R
(P: 5.61 μg per 50 μl, Q: 0.83 μg per 50 μl, R: 0.00 μg per 50 μl)
